Test system: EGFR
experimental.parameters: concentration: 1 μM, replicates: in singlicate; n = 1
measurement.type: %Inh
Mention the unit after the number when you answer.

Before answering, review these 3 worked examples.
>>> df
                                   molecule  measurement_type  val
0             COc1cccc(-n2cnc3c(N)ncnc32)c1              %Inh  18%
1  Cc1nc(N(C)[C@H]2CN(C(=O)CC#N)CC[C@H]2C)c2cc[nH]c2n1              %Inh   0%
2  OCCCNc1nccc(-c2c(-c3cccc(C(F)(F)F)c3)nn3cc(C(F)(F)F)ccc23)n1              %Inh  26%

Task: API: value(readout=%Inh, system=EGFR) for record CCc1nc(-c2cccc(C)c2)c(-c2ccncc2)s1;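 further: KINOMEscan kinase panel screen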
Result: 0%

Task: Can you handle O=C(Nc1n[nH]c2nc(-c3ccccc3)c(Br)cc12)C1CC1 next?
Result: 1%

Task: Can you handle COc1cc2ncn(-c3cc(OCc4ccncc4Br)c(C(N)=O)s3)c2cc1OC next?
Result: 27%

Task: Can you handle O=C(Nc1ccc2c(c1)OCO2)NC1CCN(c2ccnc(NCc3ccc(F)cc3)n2)CC1 next?
Result: 44%

Task: Can you handle O=C(Nc1n[nH]c2cc(-c3ccccc3F)ccc12)C1CC1 next?
Result: 0%

Task: Can you handle COc1cc(Nc2nccc(N3CCC(NC(=O)C(C)c4ccc(Cl)cc4)C3)n2)cc(OC)c1OC (stereo not drawn) next?
Result: 23%

Task: Can you handle COc1cc2nccc(Nc3cccc(Oc4ccccc4)c3)c2cc1OC.Cl next?
Result: 40%

Task: Can you handle CN(C)c1cc(-c2ccc3c(N)n[nH]c3c2)nc(N)n1 next?
Result: 43%

Task: Can you handle Cl.c1ccc(Cn2cnc3cc(Nc4ncnc5ccccc45)ccc32)cc1 next?
Result: 20%

Task: Can you handle COc1cc2ncn(-c3cc(OCc4ccncc4)c(C(N)=O)s3)c2cc1OC next?
Result: 24%

Task: Can you handle Nc1n[nH]c2nnc(-c3ccccc3)c(-c3ccccc3)c12 next?
Result: 36%

Task: Can you handle CCC(=O)c1c(-c2ccccc2)c2cc(Cl)ccc2c(=O)n1Cc1cc(S(C)(=O)=O)n(CC(F)F)n1 next?
Result: 1%

Task: Can you handle COc1cccc(C2=C(N(C)c3ccccc3)C(=O)NC2=O)c1 next?
Result: 36%

Task: Can you handle CCc1ccc(-c2ccc3c(c2)-c2nn(C)cc2S(=O)(=O)N3C)cc1 next?
Result: 0%

Task: Can you handle Cc1cccc(-c2nc(Nc3ccc4c(cnn4C)c3)c3ccccc3n2)n1 next?
Result: 0%

Task: Can you handle COc1cc2nccc(Nc3ccc(OCc4ccc(NC(C)=O)cc4)cc3)c2cc1OC.Cl next?
Result: 18%

Task: Can you handle Cc1ccc(-c2ccc3c(ccc4sc5c(c43)NC[C@@H](C)N=C5N(C)C)n2)cn1 next?
Result: 23%

Task: Can you handle Cn1c(=O)c(F)c(Nc2ccc(I)cc2F)c2c(=O)n(OC[C@H](O)CO)cnc21 next?
Result: 3%

Task: Can you handle COc1cc2ncn(-c3cc(OCc4ccc(S(C)(=O)=O)cc4)c(C(N)=O)s3)c2cc1OC next?
Result: 25%

Task: Can you handle COc1ccc(-c2cc3c(C)nc(N)nc3n([C@H]3CC[C@H](O)CC3)c2=O)cn1 next?
Result: 0%

Task: Can you handle O=c1cc(N2CCOCC2)nc2n(Cc3ccc(F)c(Cl)c3)ccn12 next?
Result: 18%

Task: Can you handle Cc1ccc(Oc2ccc(Nc3ncnc4cc[nH]c34)cc2C)cn1 next?
Result: 71%

Task: Can you handle CCCNC(=O)Nc1ccc(Oc2ncnc3ccn(C)c23)cc1 next?
Result: 15%

Task: Can you handle CC(C)(C)c1ccc(C(=O)Nc2cn3cc(-c4ccccc4)ccc3n2)cc1 next?
Result: 5%
